Binding of serum 37 to linear peptide (PEPSCAN-ELISA) by entry:
# Tested on: antibodies in sera from SARS patients (sera 1a, 1b, 2, 6, 37, 62, London, SARS-yellow, SARS-green)
# Assay type: binding, human
Lab note: jot the number down without any unit.

### Prompt What Binding of serum 37 to linear peptide (PEPSCAN-ELISA) value was documented for this sequence, NFGDQDLIRQGTDYK ?
### Response 0.7

### Prompt What Binding of serum 37 to linear peptide (PEPSCAN-ELISA) value was documented for this sequence, GNSPARMASGGGETA ?
### Response 0.6

### Prompt What Binding of serum 37 to linear peptide (PEPSCAN-ELISA) value was documented for this sequence, SGGGETALALLLLDR ?
### Response 0.7

### Prompt What Binding of serum 37 to linear peptide (PEPSCAN-ELISA) value was documented for this sequence, QLESKVSGKGQQQQG ?
### Response 0.7

---

Binding of serum 37 to looped/cyclic peptides of protein X2 of SARS-CoV Urbani by entry:
# System: antibodies in sera from SARS patients (sera 1a, 1b, 2, 6, 37, 62, London, SARS-yellow, SARS-green)
# Format: binding, human
# Parameters: unit not given here
Lab note: jot the number down without any unit.

// known answers, use as guide
{"columns": ["MONOMER_SEQUENCE", "OBSERVED_RESULT"],
 "data": [
  ["QQWIQFMMSRRRLLA", 0.6],
  ["YMAISPKFTTSLSLH", 0.5],
  ["KMLHSSSLTSLLKTH", 0.2],
  ["VVILRIGTQVLKTMS", 0.3],
  ["QLSLLKVTAFQHQNS", 0.4],
  ["TLVLKMLHSSSLTSL", 0.5],
  ["TMSLYMAISPKFTTS", 0.5],
  ["SLTSLLKTHRMCKYT", 0.2]
]}

### Prompt What Binding of serum 37 to looped/cyclic peptides of protein X2 of SARS-CoV Urbani value was documented for this sequence, VYHITVSQIQLSLLK ?
### Response 0.4

### Prompt What Binding of serum 37 to looped/cyclic peptides of protein X2 of SARS-CoV Urbani value was documented for this sequence, ELLIQQWIQFMMSRR ?
### Response 0.5

### Prompt What Binding of serum 37 to looped/cyclic peptides of protein X2 of SARS-CoV Urbani value was documented for this sequence, SRRRLLACLCKHKKV ?
### Response 0.2

### Prompt What Binding of serum 37 to looped/cyclic peptides of protein X2 of SARS-CoV Urbani value was documented for this sequence, ALQELLIQQWIQFMM ?
### Response 0.5

### Prompt What Binding of serum 37 to looped/cyclic peptides of protein X2 of SARS-CoV Urbani value was documented for this sequence, YHITVSQIQLSLLKV ?
### Response 0.4

### Prompt What Binding of serum 37 to looped/cyclic peptides of protein X2 of SARS-CoV Urbani value was documented for this sequence, LLIQQWIQFMMSRRR ?
### Response 0.5

---

# System: antibodies in sera from SARS patients (sera 1a, 1b, 2, 6, 37, 62, London, SARS-yellow, SARS-green)
# Format: binding, human
PROPERTY_LABEL: Binding of serum 62 to linear peptides of protein X1 of SARS-CoV Urbani
Lab note: jot the number down without any unit.

// known answers, use as guide
{"columns": ["MONOMER_SEQUENCE", "OBSERVED_RESULT"],
 "data": [
  ["AGMEAQFLYLYALIY", 0.4],
  ["IPYNSVTDTIVVTEG", 0.4],
  ["FICNLLLLFVTIYSH", 0.5]
]}

### Prompt What Binding of serum 62 to linear peptides of protein X1 of SARS-CoV Urbani value was documented for this sequence, QSATKIIALNKRWQL ?
### Response 0.8

### Prompt What Binding of serum 62 to linear peptides of protein X1 of SARS-CoV Urbani value was documented for this sequence, FMRFFTLGSITAQPV ?
### Response 0.7

### Prompt What Binding of serum 62 to linear peptides of protein X1 of SARS-CoV Urbani value was documented for this sequence, TTDTGIENATFFIFN ?
### Response 0.5

### Prompt What Binding of serum 62 to linear peptides of protein X1 of SARS-CoV Urbani value was documented for this sequence, IENATFFIFNKLVKD ?
### Response 0.5

### Prompt What Binding of serum 62 to linear peptides of protein X1 of SARS-CoV Urbani value was documented for this sequence, YQLESTQITTDTGIE ?
### Response 0.5
